Reported LD50 at 168 h values follow for various molecules
# assay.comment: Acute oral toxicity, single doses, observed for 7 days
# Type: in vivo
# experimental.context: rat, in vivo; Fischer rats, male, single oral dose, observed 7 days; read-out: LD50, males
Write the value in mg/kg as a bare number.

CCCCCc1cc(O)c2c(c1)OC(C)(C)[C@@H]1CCC(C)=C[C@@H]21 [delta-9-THC, delta-9-tetrahydro-cannabinol, reference compound]    1910

Now for a further molecule.
Request: Which LD50 at 168 h reading was recorded for the molecule CCCCCc1cc(O)c2c(c1)OC(C)(C)[C@@H]1CC=C(C)C[C@@H]21 [delta-8-THC] ?
Response: 1980
